Sourced from the supplement of paper PMC12042874

Assay: amyloid nucleation score (Sup35N fusion, yeast selection) (log enrichment); library NNK2; higher = more nucleation; inactive = no reads after selection;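 further: zero at mode of non-aggregating sequences after 7 days selection at 30°C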
assayMetric: amyloid nucleation score

For orientation, consider the following solved cases.
>  <constructSequence>
TNSALGSMVYELGRPLVWFF

>  <assayMetric>
amyloid nucleation score

>  <dataValue>
inactive

$$$$
>  <constructSequence>
IDLNLYERFDFQFTVSVPSV

>  <assayMetric>
amyloid nucleation score

>  <dataValue>
inactive

$$$$
>  <constructSequence>
VYGYDKISHFVHSMNSNIVW

>  <assayMetric>
amyloid nucleation score

>  <dataValue>
inactive

$$$$
>  <constructSequence>
TGPGSFFRRSGDTHLYSRDG

>  <assayMetric>
amyloid nucleation score

>  <dataValue>
inactive

$$$$
>  <constructSequence>
VSMRMVHGDYKWGRGCLIWI

>  <assayMetric>
amyloid nucleation score

>  <dataValue>
-0.196

$$$$

Quick check: amyloid nucleation score of FVGVYMVLRSLGDRVSYVMF ?
inactive
